- assay_target: UniProt P0DMS8
- Sequence (P0DMS8 1-318): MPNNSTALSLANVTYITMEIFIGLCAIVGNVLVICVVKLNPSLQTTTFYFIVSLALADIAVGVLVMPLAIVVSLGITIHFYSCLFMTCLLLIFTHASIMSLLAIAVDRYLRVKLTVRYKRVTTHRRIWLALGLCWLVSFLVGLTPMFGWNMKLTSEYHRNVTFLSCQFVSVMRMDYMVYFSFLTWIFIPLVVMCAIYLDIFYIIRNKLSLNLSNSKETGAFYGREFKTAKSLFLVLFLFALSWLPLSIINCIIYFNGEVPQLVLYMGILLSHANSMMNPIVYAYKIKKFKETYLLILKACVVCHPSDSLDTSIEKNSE
measure: Ki

What is its Ki for UniProt P0DMS8? Entry: CC(C)(C)OC(=O)NCCNc1nc(N)n2nc(-c3ccco3)nc2n1 ~1 µM

From: paper PMC3578427
